test system: KHOS-NP; experiment: relative viability vs DMSO control (72 h) (fraction); higher = more viable cells; conditions: 1.111 µM
experimentalEndpoint: relative viability
Respond with the number and no other words.

Cc1c2oc3c(C)ccc(C(=O)N[C@@H]4C(=O)N[C@H](C(C)C)C(=O)N5CCC[C@H]5C(=O)N(C)CC(=O)N(C)[C@@H](C(C)C)C(=O)O[C@@H]4C)c3nc-2c(C(=O)N[C@@H]2C(=O)N[C@H](C(C)C)C(=O)N3CCC[C@H]3C(=O)N(C)CC(=O)N(C)[C@@H](C(C)C)C(=O)O[C@@H]2C)c(N)c1=O; 0.0665

Any idea what its relative viability is? The compound is Cc1[nH]c(/C=C2\C(=O)Nc3ccccc32)c(C)c1CCC(=O)O [Orantinib] 1.09

###

system: MES-SA; experiment: relative viability vs DMSO control (72 h) (fraction); higher = more viable cells; settings: 0.00457 µM
experimentalEndpoint: relative viability

Before answering, review these 5 worked examples.
Cc1cc2c(F)c(Oc3ncnn4cc(OC[C@@H](C)OC(=O)[C@H](C)N)c(C)c34)ccc2[nH]1 [Brivanib_alaninate]; 0.929
COc1cc2ncnc(Nc3ccc(F)c(Cl)c3)c2cc1OCCCN1CCOCC1; 0.952
COc1cc(Nc2ncc3c(n2)-c2ccc(Cl)cc2C(c2c(F)cccc2OC)=NC3)ccc1C(=O)O; 0.933
C#Cc1cccc(Nc2ncnc3cc4c(cc23)OCCOCCOCCO4)c1; 0.937
CCS(=O)(=O)N1CC(CC#N)(n2cc(-c3ncnc4[nH]ccc34)cn2)C1; 0.942

Recorded relative viability for "Cn1cnc2c(F)c(Nc3ccc(Br)cc3Cl)c(C(=O)NOCCO)cc21" with MES-SA, please? 0.862

###

test system: VA-ES-BJ; assay: relative viability vs DMSO control (72 h) (fraction); higher = more viable cells; conditions: 10 µM
experimentalEndpoint: relative viability

Before answering, review these 5 worked examples.
O=C(/C=C\n1cnc(-c2cc(C(F)(F)F)cc(C(F)(F)F)c2)n1)NNc1cnccn1 [Selinexor]; 0.165
COC(=O)c1ccc2c(c1)NC(=O)/C2=C(\Nc1ccc(N(C)C(=O)CN2CCN(C)CC2)cc1)c1ccccc1; 0.803
CN(C)C/C=C/C(=O)Nc1cc2c(Nc3ccc(F)c(Cl)c3)ncnc2cc1O[C@H]1CCOC1; 0.207
CN(C)C(=O)c1cc2cnc(Nc3ccc(N4CCNCC4)cn3)nc2n1C1CCCC1; 0.597
C[C@@H]1CN(C(=O)c2ccc(NC(=O)c3cc(O[C@H](C)c4c(Cl)ccc(F)c4Cl)c(N)nn3)cc2)C[C@H](C)N1; 0.362

Any idea what its relative viability is? The compound is "COc1cc2ncnc(Nc3ccc(F)c(Cl)c3)c2cc1OCCCN1CCOCC1" 0.75

Any idea what its relative viability is? The compound is "CN(C)CCCOc1ccc(-c2ccc3ncc4c(c3c2)n(C2CCOCC2)c(=O)n4C)cn1" 0.348

Any idea what its relative viability is? The compound is "O=C(c1ccc(F)c(F)c1Nc1ccc(I)cc1F)N1CC(O)([C@@H]2CCCCN2)C1" 0.209

Any idea what its relative viability is? The compound is "Cc1cc(F)c(C(=O)Nc2cccc(-c3nncn3C(C)C)n2)cc1-n1cnc(C2CC2)c1" 0.848

###

tested on: SW982; assay: relative viability vs DMSO control (72 h) (fraction); higher = more viable cells; conditions: 0.00017 µM
Listed next: entries and their corresponding relative viability.
Respond with the number and no other words.

Before answering, review these 6 worked examples.
CO[C@H]1C[C@@H]2CC[C@@H](C)[C@@](O)(O2)C(=O)C(=O)N2CCCC[C@H]2C(=O)O[C@H]([C@H](C)C[C@@H]2CC[C@@H](OC(=O)C(C)(CO)CO)[C@H](OC)C2)CC(=O)[C@H](C)/C=C(\C)[C@@H](O)[C@@H](OC)C(=O)[C@H](C)C[C@H](C)/C=C/C=C/C=C/1C [Temsirolimus]; 0.921
O=S(=O)(c1cccc2c(O)nccc12)N1CCCNCC1 [Hydroxyfasudil]; 1.02
COc1cc(N2CCC(N3CCN(C)CC3)CC2)ccc1Nc1ncc(Cl)c(Nc2ccccc2P(C)(C)=O)n1 [Brigatinib]; 1.03
Cn1cnc2c(F)c(Nc3ccc(Br)cc3Cl)c(C(=O)NOCCO)cc21 [Selumetinib]; 1.01
Cc1cc(F)c(C(=O)Nc2cccc(-c3nncn3C(C)C)n2)cc1-n1cnc(C2CC2)c1 [Selonsertib]; 1.05
CN(C)CCCOc1ccc(-c2ccc3ncc4c(c3c2)n(C2CCOCC2)c(=O)n4C)cn1 [AZD-0156]; 1.05

Any idea what its relative viability is? The compound is COC(=O)c1ccc2c(c1)NC(=O)/C2=C(\Nc1ccc(N(C)C(=O)CN2CCN(C)CC2)cc1)c1ccccc1 [Nintedanib] 0.999

###

Listed next: entries and their corresponding relative viability.
test system: HT1080; test: relative viability vs DMSO control (72 h) (fraction); higher = more viable cells; conditions: 0.00051 µM
Respond with the number and no other words.

O=C1CCc2c(Oc3ccc4c(c3)[C@@H]3[C@H](O4)[C@H]3c3nc4cc(C(F)(F)F)ccc4[nH]3)ccnc2N1 [Lifirafenib]; 1.05

Any idea what its relative viability is? The compound is CN(C)CCCOc1ccc(-c2ccc3ncc4c(c3c2)n(C2CCOCC2)c(=O)n4C)cn1 [AZD-0156] 1.1

Any idea what its relative viability is? The compound is COc1cc(Nc2ncc3c(n2)-c2ccc(Cl)cc2C(c2c(F)cccc2OC)=NC3)ccc1C(=O)O [Alisertib] 1.07

###

system: SK-ES-1; assay: relative viability vs DMSO control (72 h) (fraction); higher = more viable cells; settings: 0.00457 µM
experimentalEndpoint: relative viability
Respond with the number and no other words.

O=C(c1ccc(F)c(F)c1Nc1ccc(I)cc1F)N1CC(O)([C@@H]2CCCCN2)C1; 1.03
O=C1CCc2c(Oc3ccc4c(c3)[C@@H]3[C@H](O4)[C@H]3c3nc4cc(C(F)(F)F)ccc4[nH]3)ccnc2N1; 1.05
COc1cc2ncnc(Nc3ccc(F)c(Cl)c3)c2cc1OCCCN1CCOCC1; 1.01

For the next question, use this compound.
Recorded relative viability for O=C(/C=C\n1cnc(-c2cc(C(F)(F)F)cc(C(F)(F)F)c2)n1)NNc1cnccn1 [Selinexor] with SK-ES-1, please? 1.05

###

test system: SW1353; test: relative viability vs DMSO control (72 h) (fraction); higher = more viable cells; conditions: 0.04115 µM
Listed next: entries and their corresponding relative viability.
Respond with the number and no other words.

O=C(c1ccc(F)c(F)c1Nc1ccc(I)cc1F)N1CC(O)([C@@H]2CCCCN2)C1; 0.838

Recorded relative viability for "CO[C@H]1C[C@@H]2CC[C@@H](C)[C@@](O)(O2)C(=O)C(=O)N2CCCC[C@H]2C(=O)O[C@H]([C@H](C)C[C@@H]2CC[C@@H](OC(=O)C(C)(CO)CO)[C@H](OC)C2)CC(=O)[C@H](C)/C=C(\C)[C@@H](O)[C@@H](OC)C(=O)[C@H](C)C[C@H](C)/C=C/C=C/C=C/1C" with SW1353, please? 0.72

Recorded relative viability for "COC(=O)c1ccc2c(c1)NC(=O)/C2=C(\Nc1ccc(N(C)C(=O)CN2CCN(C)CC2)cc1)c1ccccc1" with SW1353, please? 1.01

Recorded relative viability for "CN(C)C(=O)c1cc2cnc(Nc3ccc(N4CCNCC4)cn3)nc2n1C1CCCC1" with SW1353, please? 0.961

Recorded relative viability for "CN(C)CCCOc1ccc(-c2ccc3ncc4c(c3c2)n(C2CCOCC2)c(=O)n4C)cn1" with SW1353, please? 1.02

Recorded relative viability for "COc1cc(N2CCC(N3CCN(C)CC3)CC2)ccc1Nc1ncc(Cl)c(Nc2ccccc2P(C)(C)=O)n1" with SW1353, please? 0.851

Recorded relative viability for "Cn1cnc2c(F)c(Nc3ccc(Br)cc3Cl)c(C(=O)NOCCO)cc21" with SW1353, please? 0.782

###

test system: MES-SA; test: relative viability vs DMSO control (72 h) (fraction); higher = more viable cells; conditions: 0.04115 µM
Decide using relative viability alone. Strictly below 0.9: y. Equal to or above 0.9: n.

COc1cc2ncnc(Nc3ccc(F)c(Cl)c3)c2cc1OCCCN1CCOCC1; n
COc1cc(Nc2ncc3c(n2)-c2ccc(Cl)cc2C(c2c(F)cccc2OC)=NC3)ccc1C(=O)O; y
COC(=O)c1ccc2c(c1)NC(=O)/C2=C(\Nc1ccc(N(C)C(=O)CN2CCN(C)CC2)cc1)c1ccccc1; n
C=CC(=O)N1CCC(CNc2ncnc(N)c2-c2ccc(Oc3ccccc3)cc2)CC1; n
O=C(/C=C\n1cnc(-c2cc(C(F)(F)F)cc(C(F)(F)F)c2)n1)NNc1cnccn1 [Selinexor]; y

Threshold test, relative viability < 0.9: "CCS(=O)(=O)N1CC(CC#N)(n2cc(-c3ncnc4[nH]ccc34)cn2)C1" n

Threshold test, relative viability < 0.9: "CN(C)CCCOc1ccc(-c2ccc3ncc4c(c3c2)n(C2CCOCC2)c(=O)n4C)cn1" n

Threshold test, relative viability < 0.9: "CNC(=O)c1c(C)oc2cc(Oc3ncnc4cc(OC)c(OC)cc34)ccc12" n
